- test.system: recombinant CYP2D6 (Homo sapiens)
- Sequence (P10635 whole entry): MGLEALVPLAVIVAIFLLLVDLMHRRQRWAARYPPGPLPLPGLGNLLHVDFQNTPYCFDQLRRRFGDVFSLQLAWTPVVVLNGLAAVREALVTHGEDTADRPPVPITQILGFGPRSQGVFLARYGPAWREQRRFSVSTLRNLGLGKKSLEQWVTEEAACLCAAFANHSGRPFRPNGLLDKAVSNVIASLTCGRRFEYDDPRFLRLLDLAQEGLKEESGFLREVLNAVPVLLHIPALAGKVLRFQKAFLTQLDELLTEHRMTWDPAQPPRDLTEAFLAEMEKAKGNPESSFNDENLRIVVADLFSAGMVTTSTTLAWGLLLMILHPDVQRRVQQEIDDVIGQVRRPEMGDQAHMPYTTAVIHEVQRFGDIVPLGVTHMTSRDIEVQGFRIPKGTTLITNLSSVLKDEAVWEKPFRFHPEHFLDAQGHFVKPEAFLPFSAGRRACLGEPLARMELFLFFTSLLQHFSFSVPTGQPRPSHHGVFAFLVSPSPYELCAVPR
- protocol.details: Bufuralol 1'-hydroxylase assay (CYP2D6) IC50 determination
- measurement.setup: CYP2D6 IC50, recombinant CYP2D6 0.1 mg/ml, bufuralol 3.4 μM, 37° C., pH 7.4; Table I
pIC50: −log10 of the molar value.
attribute.measured: pIC50

Some molecules with recorded pIC50:
| molecule.smiles | pIC50 |
| --- | --- |
| COc1ccccc1CN[C@@H]1C2CCN(CC2)[C@@H]1C(c1ccccc1)c1ccccc1 | 6.77 |
| CCOc1ccc(OC(F)(F)F)cc1CN[C@H]1CCCN[C@H]1c1ccccc1 | 7.35 |
| C[C@@H](O[C@H]1OCCN(Cc2n[nH]c(=O)[nH]2)[C@H]1c1ccc(F)cc1)c1cc(C(F)(F)F)cc(C(F)(F)F)c1 | 4.74 |
| c1ccc(CN[C@@H]2C3CC4CCC(C3)N4[C@@H]2C(c2ccccc2)c2ccccc2)cc1 | 7.89 |
| Clc1ccccc1CN[C@@H]1C2CC3CCC(C2)N3[C@@H]1C(c1ccccc1)c1ccccc1 | 7.19 |
| FC(F)(F)Oc1ccccc1CN[C@H]1CCCN[C@H]1c1ccccc1 | 7.40 |

[A] COc1ccc(OC)c(CN[C@H]2CCCN[C@H]2c2ccccc2)c1
[B] FC(F)(F)c1cc(CO[C@H]2OCCN(Cc3nnc[nH]3)[C@H]2c2ccccc2)cc(C(F)(F)F)c1
Req: Could you point out whether the larger pIC50 belongs to A or to B ? Could you answer with the label of the item you picked?
Resp: A

[I] COc1ccccc1CC(=N)N1C[C@H]2C(=O)CCC(c3ccccc3)(c3ccccc3)[C@H]2C1
[II] FC(F)Oc1ccccc1CN[C@H]1CCCN[C@H]1c1ccccc1
Req: Determine, for I and II , which has the greater value of pIC50. Your answer should be the label attached to the chosen record.
Resp: I

[P] COc1ccccc1CN[C@@H]1[C@H]2CCC[C@H]2N[C@@H]1c1ccccc1
[Q] COc1ccccc1CN[C@@H]1C2CC3CCC(C2)N3[C@@H]1C(c1ccccc1)c1ccccc1
Req: Looking only at measured pIC50, which entry is lower, P or Q ? I would appreciate it if you answered with the label of your choice.
Resp: P

[P] COc1ccccc1CN[C@H]1CCCN[C@H]1c1ccccc1
[Q] COc1ccc(-n2cnnn2)cc1CN[C@H]1CCCN[C@H]1c1ccccc1
Req: P or Q : whose pIC50 is greater? Respond using the label that marks the chosen record.
Resp: P
(P: 6.70, Q: 6.49)

###

- test.system: recombinant CYP2D6 (Homo sapiens)
- protocol.details: Bufuralol 1'-hydroxylase assay (CYP2D6) IC50 determination
- measurement.setup: IC50 Observed, test set of 8 compounds, in vitro values as measured in Example 1; Table II
pIC50: −log10 of the molar value.
attribute.measured: pIC50

[1] COc1ccc(-n2cnnn2)cc1CN[C@H]1CCCN[C@H]1c1ccccc1 [XXV]
[2] Clc1ccccc1CN[C@@H]1C2C3CCCC2CN(C3)[C@@H]1C(c1ccccc1)c1ccccc1 [XI]
[3] CC(C)Oc1ccccc1CN[C@H]1CCCN[C@H]1c1ccccc1 [XIV]
Req: In ascending order of recorded pIC50, list the molecules from the set above. Kindly provide the labels arranged according to the requested ordering.
Resp: 1, 3, 2
(1: 6.49, 3: 7.42, 2: 7.80)

[a] COc1ccccc1CN[C@H]1CCCN[C@H]1c1ccccc1 [IV]
[b] c1ccc(CN[C@@H]2C3CC4CCC(C3)N4[C@@H]2C(c2ccccc2)c2ccccc2)cc1 [VI]
Req: Field: entry with larger pIC50 (options a / b ). // output: label of the selected item
Resp: b
(b: 7.89, a: 7.68)

[P] COc1ccccc1CN[C@@H]1CCCC[C@@H]1C(c1ccccc1)c1ccccc1 [II]
[Q] O=c1[nH]nc(CN2CCO[C@H](OCc3cc(C(F)(F)F)cc(C(F)(F)F)c3)[C@@H]2c2ccccc2)[nH]1 [Compound XXIV]
Req: pIC50 comparison. Which is larger, P or Q ? Indicate your choice by writing its label.
Resp: P
(P: 7.80, Q: 5.15)

These entries and their values trace back to patent US6564152B2.
